For each entry below, report its Activity value.
- Test system: Calf thymus DNA
- MEASUREMENT PROTOCOL: Binding affinity to calf thymus DNA assessed as 7-MeG adduct formation at 100 uM after 24 hrs in presence of netropsin by RP-HPLC analysis
- Type: nucleic-acid assay
- CONDITION DESCRIPTION: Bos taurus
One number for each entry, in µmol.

Some molecules with recorded Activity:
{"COMPOUND STRUCTURE": "COS(=O)(=O)CCC(=O)Nc1cc(C(=O)Nc2cc(C(=O)NCCC(=O)NCCCCCC[C@@H]3Cc4cc(O)ccc4[C@H]4CC[C@]5(C)[C@@H](O)CC[C@H]5[C@H]34)n(C)c2)n(C)c1", "TARGET SYSTEM": "Calf thymus DNA", "Activity [µmol]": 409}
{"COMPOUND STRUCTURE": "CCCNC(=O)c1cc(NC(=O)c2cc(NC(=O)CCS(=O)(=O)OC)cn2C)cn1C", "TARGET SYSTEM": "Calf thymus DNA", "Activity [µmol]": 714}
{"COMPOUND STRUCTURE": "COS(=O)(=O)CCC(=O)Nc1cc(C(=O)Nc2cc(C(=O)NCC(=O)NCCCCCC[C@@H]3Cc4cc(O)ccc4[C@H]4CC[C@]5(C)[C@@H](O)CC[C@H]5[C@H]34)n(C)c2)n(C)c1", "TARGET SYSTEM": "Calf thymus DNA", "Activity [µmol]": 482}

Attention now shifts to the item below.
Please report Activity for the following molecule: COS(=O)(=O)CCC(=O)Nc1cc(C(=O)Nc2cc(C(=O)NCCCC(=O)NCCCCCC[C@@H]3Cc4cc(O)ccc4[C@H]4CC[C@]5(C)[C@@H](O)CC[C@H]5[C@H]34)n(C)c2)n(C)c1
420

Source of measurements: ChEMBL document CHEMBL5030533
